Numbers sourced from patent US20050250677A1.

# EC50 per record follows
Test system: HIV-1 (IIIB)
Test: Inhibition of HIV-1 (IIIB)-induced cytopathicity (giant cell formation) in CEM cells
Assay type: cell-based
Settings: read-out: EC50 HIV-1 (concentration required to inhibit HIV-induced giant cell formation by 50%); HIV-1, CEM cell cultures
API: value field is a number in µM; no unit string.

// below: answered compounds
>  <compound>
CNCc1c(O)cc2c(c1O)-c1cc(ccc1O)C1NC(=O)C3NC(=O)C4NC(=O)C(Cc5ccc(c(Cl)c5)Oc5cc3cc(c5O)Oc3ccc(cc3Cl)C(O)C(NC1=O)C(=O)NC2C(=O)NC)NC(=O)C(N)c1ccc(O)c(c1)Oc1cc(O)cc4c1 (stereo not drawn) [Compound 45]

>  <system>
HIV-1 (IIIB)

>  <EC50 [µM]>
15

$$$$
>  <compound>
CCCCCCCCCC[N+](C)(C)CCCNCc1c(O)cc2c(c1O)-c1cc(ccc1O)C1NC(=O)C3NC(=O)C4NC(=O)C(Cc5ccc(cc5)Oc5cc3cc(c5OC3OC(C(=O)O)C(O)C(O)C3N)Oc3ccc(cc3Cl)C(O)C(NC1=O)C(=O)NC2C(=O)O)NC(=O)C(NC)c1ccc(O)c(c1)Oc1cc(O)c(Cl)c4c1 (stereo not drawn) [Compound 95]

>  <system>
HIV-1 (IIIB)

>  <EC50 [µM]>
3.5

$$$$

Now let's try a different one.
Would you mind telling me what EC50 value was observed for CNC1C(=O)NC2Cc3ccc(cc3)Oc3cc4cc(c3OC3OC(C(=O)NCCC[N+](C)(C)Cc5ccc(-c6ccccc6)cc5)C(O)C(O)C3N)Oc3ccc(cc3Cl)C(O)C3NC(=O)C(NC(=O)C4NC(=O)C(NC2=O)c2cc(cc(O)c2Cl)Oc2cc1ccc2O)c1ccc(O)c(c1)-c1c(OC2OC(CO)C(O)C(O)C2O)cc(O)cc1C(C(=O)NCCC[N+](C)(C)Cc1ccc(-c2ccccc2)cc1)NC3=O (stereo not drawn) [Compound 10] ?
4
